- protocol-summary: Mouse Pharmacokinetic Study (Example 1C)
- Format: in vivo
- reported-conditions: mouse, plasma; CD-1 mice, po, 30 mg/kg
Decision: bioavailability compared against 10%; not below it gives Met, below it gives Not met.

[[record]]
molecule = "N#Cc1cnn2c(N[C@@H]3CCc4[nH]c5ccccc5c4C3)nc(-c3cncc(F)c3)nc12"
assigned_category = "Met"

[[record]]
molecule = "Cc1cnn2c(N[C@H]3Cc4ccc(O)cc4C3)cc(-c3cncc(F)c3)nc12"
assigned_category = "Not met"

[[record]]
molecule = "CN(C)c1cnn2c(NCCc3c[nH]c4ccccc34)cc(-c3cncc(F)c3)nc12"
assigned_category = "Met"

[[record]]
molecule = "CC(C)c1cnn2c(N[C@@H]3CCc4[nH]c5ccccc5c4C3)cc(-c3cncc(F)c3)nc12 [I-75a]"
assigned_category = "Met"

[[record]]
molecule = "Fc1cncc(-c2cc(OC3CCCC3)nc(NCCc3c[nH]c4ccccc34)n2)c1"
assigned_category = "Met"

[[record]]
molecule = "C[C@H](O)c1cnn2c(NCCc3c[nH]c4ccccc34)cc(-c3cncc(F)c3)nc12 [I-222b]"
assigned_category = "Met"

[[record]]
molecule = "CN(C)c1cnn2c(N[C@H]3Cc4ccc(O)cc4C3)cc(-c3cncc(F)c3)nc12 [I-204b]"
assigned_category = "Not met"

[[record]]
molecule = "CC(C)c1cnn2c(NCCc3c[nH]c4ccccc34)cc(-c3cncc(F)c3)nc12"
assigned_category = "Met"

[[record]]
molecule = "Cc1cnn2c(NCCc3c[nH]c4ccccc34)cc(-c3cncc(F)c3)nc12"
assigned_category = "Met"


---

- assay-target: AHR (UniProt P35869)
- Construct: IC50
- protocol-summary: DRE-Luciferase Reporter Assay (Alternate Method) (Example 1B)
- Type: cell-based, murine or human
- reported-conditions: cell line and AHR activating ligand not specified
experimental-readout: IC50

[[record]]
compound = "COc1cncc(-c2cc(NC3CCc4[nH]c5ccccc5c4C3)n3ncc(C(C)C)c3n2)c1 (centres unmarked)"
reported_result = "> 1500 nM"

[[record]]
compound = "CC(C)c1cnn2c(N[C@H]3Cc4[nH]c5ccccc5c4C3)nc(-c3cncc(F)c3)nc12 [I-263b]"
reported_result = "1000 to 1500 nM"

[[record]]
compound = "Cc1[nH]c2ccccc2c1CCNc1cc(-c2cncc(F)c2)nc2c(C(C)C)cnn12"
reported_result = "< 500 nM"

[[record]]
compound = "O=C(c1cnn2c(N[C@@H]3CCc4[nH]c5ccccc5c4C3)nc(-c3cncc(F)c3)nc12)N1CCOCC1"
reported_result = "< 500 nM"

[[record]]
compound = "CC(C)(C)c1cnn2c(NCCc3c[nH]c4ccccc34)cc(-c3cncc(F)c3)nc12"
reported_result = "< 500 nM"

[[record]]
compound = "OCc1cnn2c(NCCc3c[nH]c4ccc(O)cc34)cc(-c3cncc(F)c3)nc12"
reported_result = "> 1500 nM"

[[record]]
compound = "Cc1cnn2c(OCCc3c[nH]c4ccccc34)cc(-c3cncc(F)c3)nc12"
reported_result = "> 1500 nM"

[[record]]
compound = "Cc1cnn2c(N[C@H]3CCc4[nH]ccc4C3)nc(-c3cncc(F)c3)nc12 [I-259a]"
reported_result = "< 500 nM"

[[record]]
compound = "Fc1cncc(-c2cc(N[C@@H]3CCc4[nH]c5ccccc5c4C3)n3ncc(C(F)(F)F)c3n2)c1"
reported_result = "> 1500 nM"

[[record]]
compound = "Cc1cnn2c(N[C@H](Cc3c[nH]c4ccccc34)CN(C)C)cc(-c3cncc(F)c3)nc12"
reported_result = "> 1500 nM"

[[record]]
compound = "CC(C)Oc1cc(-c2cncc(F)c2)nc(N[C@@H]2CCc3[nH]c4ccccc4c3C2)n1"
reported_result = "> 1500 nM"

[[record]]
compound = "Cc1[nH]c2c(F)cccc2c1CCNc1cc(-c2cncc(F)c2)nc2c(C)cnn12"
reported_result = "< 500 nM"

[[record]]
compound = "CC(C)c1cnn2c(NC3CCc4[nH]c5ccccc5c4C3)nc(-n3ccnc3)nc12 (centres unmarked)"
reported_result = "< 500 nM"

[[record]]
compound = "CC(C)c1cnn2c(N[C@@H]3CCc4[nH]c(-c5ccccc5)cc4C3)nc(-c3cncc(F)c3)nc12 [I-249b]"
reported_result = "< 500 nM"

